Reported pIC50 against TBK1 (Homo sapiens, UniProt Q9UHD2), gathered from multiple publications, appears below.
Sequence (Q9UHD2 whole entry): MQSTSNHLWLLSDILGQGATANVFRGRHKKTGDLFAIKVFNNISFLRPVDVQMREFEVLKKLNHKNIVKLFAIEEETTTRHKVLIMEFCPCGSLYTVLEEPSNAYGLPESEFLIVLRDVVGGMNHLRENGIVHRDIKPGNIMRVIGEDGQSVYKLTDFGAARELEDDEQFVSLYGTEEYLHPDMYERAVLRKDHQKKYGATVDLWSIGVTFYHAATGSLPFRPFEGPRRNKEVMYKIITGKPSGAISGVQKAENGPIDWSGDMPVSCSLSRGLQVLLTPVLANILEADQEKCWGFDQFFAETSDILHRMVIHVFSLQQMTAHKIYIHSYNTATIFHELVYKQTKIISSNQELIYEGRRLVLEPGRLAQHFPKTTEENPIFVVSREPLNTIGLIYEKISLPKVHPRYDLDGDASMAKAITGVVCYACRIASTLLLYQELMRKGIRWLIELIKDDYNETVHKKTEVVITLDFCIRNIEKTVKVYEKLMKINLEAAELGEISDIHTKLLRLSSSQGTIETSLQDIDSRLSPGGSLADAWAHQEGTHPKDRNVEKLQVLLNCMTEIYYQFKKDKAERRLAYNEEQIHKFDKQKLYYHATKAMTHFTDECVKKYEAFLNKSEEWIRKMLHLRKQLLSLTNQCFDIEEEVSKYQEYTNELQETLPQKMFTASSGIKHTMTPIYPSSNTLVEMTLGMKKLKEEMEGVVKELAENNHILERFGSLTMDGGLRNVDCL
pIC50: −log10 of the molar value.

The examples below pair each entry with its known result.
# MOLECULE, SYSTEM UNDER TEST, REPORTED RESULT
rows = [
    ("COc1nc(Nc2cc(-c3ccc(OC4CCOCC4)c(C#N)c3)ncn2)ccc1N1CCN(C2COC2)CC1", "TBK1 (Homo sapiens, UniProt Q9UHD2)", "> 7.00"),
    ("COc1nc(Nc2cc(-c3ccc(OC4CN(C)C4)c(C#N)c3)ncn2)ccc1C(=O)N(C)C", "TBK1 (Homo sapiens, UniProt Q9UHD2)", "6.00 to 7.00"),
    ("COc1ccc(-c2cnc3[nH]cc(C4=CC(c5ccccc5)N(C(=O)NC(C)C)CC4)c3c2)cc1OC (stereo not shown)", "TBK1 (Homo sapiens, UniProt Q9UHD2)", 5.27),
]

Value (pIC50, TBK1 (Homo sapiens, UniProt Q9UHD2)) for record N#Cc1ccc(-c2cnc3[nH]cc(-c4ccc(OC5CCOCC5)c(C#N)c4)c3c2)cc1 = > 6.52
